Test system: NCI-H226
Assay protocol: Anti-proliferative activity against human NCI-H226 expressing NF2 mutant assessed as cell growth inhibition by CellTiter-Glo Luminescent Cell Viability Assay
Assay type: functional, cell-based
Measure: IC50 (nM)
Give the number; nM is assumed, so skip it.

[in] May I ask what IC50 has been recorded for CNS(=O)(=O)c1ccc(Nc2ccc(C(F)(F)F)cc2)c(-c2cn(C)cn2)c1 ?
[out] 3.8

---

Target or system: Transcriptional enhancer factor TEF-1 (Homo sapiens, UniProt P28347)
Sequence (P28347 whole entry, the tested form may be a part): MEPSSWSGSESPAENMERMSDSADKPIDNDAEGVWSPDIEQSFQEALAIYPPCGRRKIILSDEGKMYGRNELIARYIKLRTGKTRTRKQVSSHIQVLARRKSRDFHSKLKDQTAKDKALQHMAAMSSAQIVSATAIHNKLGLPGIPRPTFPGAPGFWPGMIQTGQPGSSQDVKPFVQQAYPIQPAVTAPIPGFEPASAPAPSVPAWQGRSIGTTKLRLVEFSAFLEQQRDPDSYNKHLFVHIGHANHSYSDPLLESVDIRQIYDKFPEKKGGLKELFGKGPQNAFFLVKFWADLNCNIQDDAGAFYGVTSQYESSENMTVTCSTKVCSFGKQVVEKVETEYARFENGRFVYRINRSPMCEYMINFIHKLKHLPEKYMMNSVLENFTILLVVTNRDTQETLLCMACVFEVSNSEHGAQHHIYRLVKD
Assay protocol: Inhibition of N-terminal 6xHis-tagged human TEAD1 auto palmitoylation (209 to 426 residues) expressed in Escherichia coli BL21 (DE3) cells by ABPP assay
Measure: pIC50
pIC50 is defined as minus the log10 of a concentration measured in mol/L.

[in] Consider the molecule C=CC(=O)N1CCC(CCOc2ccccc2)CC1 and give its measured pIC50.
[out] 6.24
